The entries below come with measured IC50 values attached.
Target: Dual specificity tyrosine-phosphorylation-regulated kinase 1A (Rattus norvegicus, UniProt Q63470)
Experiment: Inhibition of rat recombinant DYRK1A expressed in Escherichia coli using myelin basic protein as substrate after 30 mins by scintillation counting analysis in presence of [gamma-33P]ATP
ENDPOINT: IC50

Nc1n[nH]c(=O)c2ccccc12: 4.1 µM
CCCNc1n[nH]c(=O)cc1-c1ccccc1: > 10 µM
Nc1n[nH]c(=O)cc1-c1ccccc1: > 10 µM
O=C(Cc1ccccc1)N(C(=O)Cc1ccccc1)c1nnc(Cl)c2ccccc12: > 10 µM
CC(=O)Nc1cc(-c2ccccc2)c(=O)[nH]n1: 10 µM
CC(C)C(=O)N(C(=O)C(C)C)c1n[nH]c(=O)c2ccccc12: > 10 µM
O=c1[nH]nc(NCc2ccccc2)cc1-c1ccccc1: > 10 µM
O=c1[nH]nc(NCCN2CCCCC2)c2ccccc12: > 10 µM
O=C(Nc1cc(-c2ccccc2)c(=O)[nH]n1)c1ccccc1: > 10 µM
CCCNc1n[nH]c(=O)c2ccccc12: > 10 µM
CC(=O)Nc1n[nH]c(=O)cc1-c1ccccc1: > 10 µM
O=c1cc(-c2ccccc2)c(NCCN2CCCCC2)n[nH]1: > 10 µM
O=C(Cc1ccccc1)Nc1nnc(Cl)c2ccccc12: > 10 µM
